- ASSAY_PROTOCOL: Volume of distribution in Wistar Han rat at 1 mg/kg, iv or 1 mg/kg, po
- Format: ADME, organism-based
- APPLIED_CONDITIONS: in vivo, read-out: Vss
READOUT: Vd (L/kg)
Could you give me the number in L/kg? Just the number is fine.

Query: Quickly give me recorded Vd for O=C(O)c1cccc(-c2cccc(NCCNC[C@H](O)c3cccc(Cl)c3)c2)c1
Response: 1.3

* * *

- ASSAY_PROTOCOL: AUC(0-infinity) in po dosed Beagle dog
- Format: ADME, organism-based, Canis lupus familiaris
- Design: time infinity, route oral
- APPLIED_CONDITIONS: plasma
READOUT: AUC(0-inf) (ng·h/mL)
Report only the number, with the unit ng·h/mL understood.

Known results for compounds:
- COMPOUND: "O=C(O)c1cccc(-c2cccc(NCCNC[C@H](O)c3cccc(Cl)c3)c2)c1 [SOLABEGRON]"
  UNIT_DESCRIPTOR: "ng·h/mL"
  AUC(0-inf): 595
- COMPOUND: "Cc1ccc(C(=O)O)cc1-c1cccc(NCCNC[C@H](O)c2cccc(Cl)c2)c1"
  UNIT_DESCRIPTOR: "ng·h/mL"
  AUC(0-inf): 173
- COMPOUND: "C[C@H](CNc1cccc(-c2ccccc2C(=O)O)c1)NC[C@H](O)c1cccc(Cl)c1"
  UNIT_DESCRIPTOR: "ng·h/mL"
  AUC(0-inf): 310
- COMPOUND: "O=C(O)c1ccncc1-c1cccc(NCCNC[C@H](O)c2cccc(Cl)c2)c1"
  UNIT_DESCRIPTOR: "ng·h/mL"
  AUC(0-inf): 161

Query: Output AUC(0-inf) of C[C@H](CNc1cccc(-c2cccc(C(=O)O)c2)c1)NC[C@H](O)c1cccc(Cl)c1
Response: 135
